Data provenance: ChEMBL document CHEMBL1132111

Measured Fold selective, listed per entry.
- Procedure details: Selectivity against alpha-1a receptor over alpha-2a,b,c adrenoceptors
Property name: Fold selective

INSERT INTO measurements (molecule, property_name, recorded_result) VALUES
  ('COC(=O)C1=C(C)NC(=O)N(CCCCCN2CCC(C(=O)OC)(c3ccccc3)CC2)C1c1ccc(F)c(F)c1 (centres undefined)', 'Fold selective', '> 1000'),
  ('COC(=O)C1=C(C)N=C(C)N(CCCCCN2CCC(c3ccccc3OC)CC2)C1c1ccc(F)c(F)c1 (centres undefined)', 'Fold selective', '> 100'),
  ('COCC1=NC(C)=C(C(=O)OC)C(c2ccc(F)c(F)c2)N1CCCCCN1CCC(C#N)(c2ccccc2)CC1 (centres undefined)', 'Fold selective', '> 700'),
  ('COC(=O)C1=C(C)N=C(C)N(CCCCCN2CCN(c3ccccc3OC)CC2)C1c1ccc(F)c(F)c1 (centres undefined)', 'Fold selective', '< 100');

###

- Procedure details: Selectivity against alpha-1a receptor over alpha-2a,b,c adrenoceptors
Known Fold selective of a selection of compounds
Property name: Fold selective

INSERT INTO results (compound, recorded_result) VALUES
  ('COC(=O)C1=C(C)N=C(C)N(CCC[C@@H](C)CN2CCC(C#N)(c3ccccc3)CC2)C1c1ccc(F)c(F)c1 (some centres not stated)', '< 10'),
  ('COC(=O)C1=C(C)N=C(C)N(CCC[C@H](C)CN2CCN(c3ccccc3C(N)=O)CC2)C1c1ccc(F)c(F)c1 (some centres not stated)', '< 100'),
  ('COC(=O)C1=C(C)N=C(C)N(CCCCCN2CCC(C(=O)OC)(c3ccccc3)CC2)C1c1ccc(F)cc1F (configuration not stated)', '> 1000'),
  ('COC(=O)C1=C(C)N=C(C)N(CCCCCN2CCC(C#N)(c3ccccc3)CC2)C1c1ccc(F)c(F)c1 (configuration not stated)', '> 300'),
  ('COC(=O)C1(c2ccccc2)CCN(CCCCCN2C(C)=NC(C)=C(C(N)=O)C2c2ccc(F)cc2F)CC1 (configuration not stated)', '< 10'),
  ('COC(=O)C1=C(C)N=C(C)N(CCCCCN2CCC(c3ccccc3)CC2)C1c1ccc(F)c(F)c1 (configuration not stated)', '> 300'),
  ('COC(=O)C1=C(C)N=C(C)N(CCC[C@H](C)CN2CCC(C(=O)OC)(c3ccccc3)CC2)C1c1ccc(F)c(F)c1 (single isomer, unassigned; (+))', '< 50');

###

- Measurement target: Alpha-1A adrenergic receptor (Homo sapiens, UniProt P35348)
- Sequence (P35348 whole entry): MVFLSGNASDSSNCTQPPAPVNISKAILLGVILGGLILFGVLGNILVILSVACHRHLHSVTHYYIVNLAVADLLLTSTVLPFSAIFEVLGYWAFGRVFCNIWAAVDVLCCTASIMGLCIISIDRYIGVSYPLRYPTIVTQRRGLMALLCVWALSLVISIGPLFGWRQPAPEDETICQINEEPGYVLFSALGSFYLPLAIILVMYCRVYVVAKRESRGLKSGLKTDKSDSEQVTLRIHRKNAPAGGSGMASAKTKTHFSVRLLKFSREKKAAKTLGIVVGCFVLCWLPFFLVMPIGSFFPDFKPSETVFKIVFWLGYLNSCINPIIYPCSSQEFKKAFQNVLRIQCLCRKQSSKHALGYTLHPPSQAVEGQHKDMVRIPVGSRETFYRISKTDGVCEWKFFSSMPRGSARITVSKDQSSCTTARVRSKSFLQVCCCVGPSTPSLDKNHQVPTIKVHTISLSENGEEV
- Procedure details: Binding affinity against Alpha-1A adrenergic receptor (recombinant human receptor) using [3H]prazosin.
Binarize Ki at 4 nM; below is criterion met, at or above is criterion not met.

INSERT INTO results (compound, measurement_target, assigned_class) VALUES
  ('COC(=O)C1=C(C)N=C(C)N(CCC[C@H](C)CN2CCN(c3ccccc3C(N)=O)CC2)C1c1ccc(F)c(F)c1 (stereo not given in full)', 'Alpha-1A adrenergic receptor (Homo sapiens, UniProt P35348)', 'criterion met'),
  ('COC(=O)C1=C(C)N=C(C)N(CCCCCN2CCN(c3ccccc3OC)CC2)C1c1ccc(F)c(F)c1 (stereo not given)', 'Alpha-1A adrenergic receptor (Homo sapiens, UniProt P35348)', 'criterion met'),
  ('CNC(=O)C1=C(C)N=C(C)N(CCCCCN2CCC(C(=O)OC)(c3ccccc3)CC2)C1c1ccc(F)cc1F (stereo not given)', 'Alpha-1A adrenergic receptor (Homo sapiens, UniProt P35348)', 'criterion not met'),
  ('COC(=O)C1=C(C)N=C(C)N(CCC[C@H](C)CN2CCC(C(=O)OC)(c3ccccc3)CC2)C1c1ccc(F)c(F)c1 (single isomer, unassigned; (+))', 'Alpha-1A adrenergic receptor (Homo sapiens, UniProt P35348)', 'criterion met'),
  ('COC(=O)C1=C(C)N=C(C)N(CCCCN2CCC(C(=O)OC)(c3ccccc3)CC2)C1c1ccc(F)c(F)c1 (stereo not given)', 'Alpha-1A adrenergic receptor (Homo sapiens, UniProt P35348)', 'criterion met');

###

- Procedure details: Bioavailability in dog
- Format: ADME, organism-based, Canis lupus familiaris
- Condition set: in vivo
Property name: bioavailability

INSERT INTO assay_data (molecule, recorded_result) VALUES
  ('COC(=O)C1=C(C)N=C(C)N(CCCCCN2CCN(c3ccccc3C(N)=O)CC2)C1c1ccc(F)c(F)c1 (stereo unspecified)', '< 10%');

###

- Measurement target: UniProt P35348
- Procedure details: Binding affinity against Alpha-1A adrenergic receptor (recombinant human receptor) using [3H]prazosin.
Property name: Ki

INSERT INTO results (compound, measurement_target, property_name, recorded_result) VALUES
  ('COC(=O)C1=C(C)N=C(C)N(CCCCCN2CCC(c3ccccc3OC)CC2)C1c1ccc(F)c(F)c1 (stereo not drawn)', 'UniProt P35348', 'Ki', '0.3 nM'),
  ('COC(=O)C1=C(C)N=C(C)N(Cc2cccc(CN3CCC(C(=O)OC)(c4ccccc4)CC3)c2)C1c1ccc(F)c(F)c1 (stereo not drawn)', 'UniProt P35348', 'Ki', '6.8 nM'),
  ('COC(=O)C1=C(C)N=C(C)N(CCCCCN2CCC(c3ccc(C)cc3)(c3ccccc3C)CC2)C1c1ccc(F)c(F)c1 (stereo not drawn)', 'UniProt P35348', 'Ki', '0.1 nM'),
  ('COC(=O)C1=C(C)N=C(C)N(CCCCCN2CCC(C(=O)OC)(c3ccccc3)CC2)C1c1ccc(F)cc1F (stereo not drawn)', 'UniProt P35348', 'Ki', '0.5 nM'),
  ('COC(=O)C1=C(C)N=C(C)N(CCCCCN2CCC(c3ccccc3)(c3ccccc3)CC2)C1c1ccc(F)c(F)c1 (stereo not drawn)', 'UniProt P35348', 'Ki', '0.4 nM'),
  ('COCC1=NC(C)=C(C(=O)OC)C(c2ccc(F)c(F)c2)N1CCCCCN1CCC(C#N)(c2ccccc2)CC1 (stereo not drawn)', 'UniProt P35348', 'Ki', '0.4 nM'),
  ('COC(=O)C1=C(C)N=C(C)N(CCC[C@H](C)CN2CCC(C#N)(c3ccccc3)CC2)C1c1ccc(F)c(F)c1 (stereo partly drawn)', 'UniProt P35348', 'Ki', '1.2 nM'),
  ('COC(=O)C1=C(C)N=C(C)N(CCCCCN2CCN(c3ccccc3C(N)=O)CC2)C1c1ccc(F)c(F)c1 (stereo not drawn)', 'UniProt P35348', 'Ki', '0.6 nM');

###

- Measurement target: Alpha-1A adrenergic receptor (Rattus norvegicus, UniProt P43140)
- Sequence (P43140 whole entry): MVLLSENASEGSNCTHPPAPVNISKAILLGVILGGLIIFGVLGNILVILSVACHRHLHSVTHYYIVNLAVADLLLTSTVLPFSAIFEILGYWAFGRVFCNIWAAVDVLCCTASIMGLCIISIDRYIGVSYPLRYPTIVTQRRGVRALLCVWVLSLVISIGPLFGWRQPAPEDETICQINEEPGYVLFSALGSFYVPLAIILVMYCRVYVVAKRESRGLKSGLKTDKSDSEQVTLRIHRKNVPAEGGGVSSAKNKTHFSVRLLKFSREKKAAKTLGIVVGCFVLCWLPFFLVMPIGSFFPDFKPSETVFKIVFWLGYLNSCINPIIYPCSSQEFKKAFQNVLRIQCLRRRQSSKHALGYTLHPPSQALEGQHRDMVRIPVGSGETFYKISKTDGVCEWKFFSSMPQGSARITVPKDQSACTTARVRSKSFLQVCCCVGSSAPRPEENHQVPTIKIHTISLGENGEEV
- Procedure details: Binding affinity against isolated rat prostate using [3H]- prazosin.
pKi: −log10 of the molar value.
Property name: pKi

INSERT INTO results (compound, recorded_result) VALUES
  ('COC(=O)C1=C(C)N=C(C)N(CCCCCN2CCC(c3ccccc3)(c3ccccc3)CC2)C1c1ccc(F)c(F)c1 (stereo unspecified)', 9.01);

###

- Measurement target: Alpha-1B adrenergic receptor (Homo sapiens, UniProt P35368)
- Sequence (P35368 whole entry): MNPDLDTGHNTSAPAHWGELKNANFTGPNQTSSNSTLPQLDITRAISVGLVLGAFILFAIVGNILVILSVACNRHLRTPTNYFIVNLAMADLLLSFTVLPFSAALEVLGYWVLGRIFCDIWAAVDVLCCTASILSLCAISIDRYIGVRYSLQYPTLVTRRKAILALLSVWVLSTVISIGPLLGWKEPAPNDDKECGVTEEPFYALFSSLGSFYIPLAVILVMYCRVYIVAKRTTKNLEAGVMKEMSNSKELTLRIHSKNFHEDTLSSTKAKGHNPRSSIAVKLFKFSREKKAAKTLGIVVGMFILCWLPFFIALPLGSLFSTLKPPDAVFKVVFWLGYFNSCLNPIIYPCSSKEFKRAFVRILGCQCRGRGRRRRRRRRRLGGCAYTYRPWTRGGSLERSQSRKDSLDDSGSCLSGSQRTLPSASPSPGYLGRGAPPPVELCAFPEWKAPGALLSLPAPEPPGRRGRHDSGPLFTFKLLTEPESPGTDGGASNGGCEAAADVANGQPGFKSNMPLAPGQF
- Procedure details: Binding affinity against Alpha-1B adrenergic receptor (recombinant human receptor) using [3H]prazosin.
pKi: −log10 of the molar value.
List of pKi values.
Property name: pKi

INSERT INTO results (compound, recorded_result) VALUES
  ('COC(=O)C1=C(C)N=C(C)N(CCCCCN2CCN(c3ccccc3OC)CC2)C1c1ccc(F)c(F)c1 (centres undefined)', 7.17),
  ('COCC1=NC(C)=C(C(=O)OC)C(c2ccc(F)c(F)c2)N1CCCCCN1CCC(C#N)(c2ccccc2)CC1 (centres undefined)', 6.51),
  ('COC(=O)C1=C(C)N=C(C)N(CCCCCN2CCC(c3ccccc3)(c3ccccc3)CC2)C1c1ccc(F)c(F)c1 (centres undefined)', 7.00),
  ('COC(=O)C1=C(C)N=C(C)N(CCC[C@@H](C)CN2CCC(C#N)(c3ccccc3)CC2)C1c1ccc(F)c(F)c1 (some centres undefined)', 5.77);
